target: UniProt:Q01827; assay: Competition for [3H](±)TBZ binding in rat striatal homogenates; parameters: The basal forebrain regions of rat and mouse brains were then dissected; from tissue; host or cells: rat striatum / basal forebrain homogenate; conditions: [3H](±)TBZ 1.0-1.5 nM, Kd […] used for calculation
Sequence (Q01827 whole entry): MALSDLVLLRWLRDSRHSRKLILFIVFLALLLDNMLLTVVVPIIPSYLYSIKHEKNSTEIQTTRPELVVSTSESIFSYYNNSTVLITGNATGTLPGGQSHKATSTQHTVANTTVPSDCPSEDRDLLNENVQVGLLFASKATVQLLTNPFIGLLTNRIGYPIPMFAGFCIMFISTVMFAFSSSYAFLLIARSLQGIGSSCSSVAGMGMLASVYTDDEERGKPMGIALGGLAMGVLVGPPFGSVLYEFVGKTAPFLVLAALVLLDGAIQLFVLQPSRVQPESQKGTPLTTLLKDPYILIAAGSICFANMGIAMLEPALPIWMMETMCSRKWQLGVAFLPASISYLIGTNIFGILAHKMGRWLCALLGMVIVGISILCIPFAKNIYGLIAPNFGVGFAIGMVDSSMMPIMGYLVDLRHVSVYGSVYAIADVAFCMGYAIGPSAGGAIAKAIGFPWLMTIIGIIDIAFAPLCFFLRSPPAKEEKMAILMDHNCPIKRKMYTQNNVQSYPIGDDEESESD
Here, each record is paired with measured pKi data.
Note on units: pKi is unitless, being -log10 of a concentration expressed in mol/L.

COc1cc2c(cc1OCCCF)CCN1CC(CC(C)C)C(O)CC21 (stereo not drawn) [FP-(+)-DTBZ]	10.00

Okay, next one:
COc1cc2c(cc1O)CCN1CC(CC(C)C)C(O)CC21 (racemic) [3,9-desmethyl-(±)DTBZ, (±)-9-O-Desmethyldihydrotetrabenazine, reference compound] tested on UniProt:Q01827 gave pKi: 7.93

###

test system: VMAT-2; construct: from tissue; host or cells: living rats; organs dissected after iv injection; experiment: Blocking of pancreatic signal by DTBZ in rats; format: in vivo; conditions: rat, cerebellum, 30 min Control, read-out: Regional Brain Distribution Cerebellum
readout-label: tissue uptake at 30 min (%ID/g)
Numeric only. Scale: %ID/g

Record COc1cc2c(cc1OCCC[18F])CCN1C[C@@H](CC(C)C)[C@H](O)C[C@H]21 [[^18F]-(+)-6b] , field tissue uptake at 30 min: 0.36

###

Reported Kd for target or system VMAT2 (Mus musculus, UniProt Q8BRU6), by entry.
Supply the numeric figure in nM, leaving out any unit text.

COc1cc2c(cc1OCC[18F])CCN1CC(CC(C)C)C(O)CC21 (racemic) [[^18F]6a]	0.52

Now examine the next entry.
The compound COc1cc2c(cc1OCCC[18F])CCN1CC(CC(C)C)C(O)CC21 (racemic) [[^18F]6b] showed Kd equal to 0.48

###

target: UniProt Q01827; assay: Competition for [3H](±)TBZ binding in rat striatal homogenates; set-up: The basal forebrain regions of rat and mouse brains were then dissected; from tissue; host or cells: rat striatum / basal forebrain homogenate; settings: [3H](±)-TBZ, Kd […] used for calculation
readout-label: Ki (nM)
# value in nM; strip the unit string

Looking up COc1cc2c(cc1OCCCF)CCN1CC(CC(C)C)C(O)CC21 (racemic) [Compound 6b] , I found its Ki recorded as 0.19

###

assay: Blocking of pancreatic signal by DTBZ in rats; assay type: in vivo; details: rat, cortex, 30 min Control, read-out: Regional Brain Distribution Cortex
readout-label: tissue uptake at 30 min (%ID/g)
Note: unit %ID/g is implicit; provide only the numeric part.

Reported tissue uptake at 30 min for COc1cc2c(cc1OCCC[18F])CCN1C[C@@H](CC(C)C)[C@H](O)C[C@H]21 [[^18F]-(+)-6b] was 0.36

###

assay: Blocking of pancreatic signal by DTBZ in rats; format: in vivo; details: rat, hypothalamus, 30 min Control, read-out: Regional Brain Distribution Hypothalamus
readout-label: tissue uptake at 30 min (%ID/g)
Please state the figure in %ID/g; there is no need to write the unit.

response.value for COc1cc2c(cc1OCCC[18F])CCN1C[C@@H](CC(C)C)[C@H](O)C[C@H]21 [[^18F]-(+)-6b] (field: tissue uptake at 30 min) = 1.2

###

assay: Blocking of pancreatic signal by DTBZ in rats; format: in vivo; details: rat, cortex, 30 min Blocking, DTBZ 3.8 mg/kg pretreatment, read-out: Regional Brain Distribution Cortex
readout-label: tissue uptake at 30 min (%ID/g)
Give the value in %ID/g but do not write %ID/g after it.

Lookup result for COc1cc2c(cc1OCCC[18F])CCN1C[C@@H](CC(C)C)[C@H](O)C[C@H]21 [[^18F]-(+)-6b] ; measured tissue uptake at 30 min: 0.26

Cited source for all entries: patent US8562949B2
